System: Mus musculus
Assay: CNS activity in po dosed mouse assessed as reduction in muscle relaxant activity by inclined screening method
Format: functional
API: label(entry) gives condition met if the entry's ED50 is strictly smaller than 200 mg/kg; on equality or larger values it gives condition not met.

// below: answered compounds
INSERT INTO assay_data (compound, group) VALUES
  ('O=C1CN=C(c2ncccn2)c2cc(Cl)ccc2N1', 'condition not met'),
  ('CN1CCN=C(c2ncccn2)c2cc([N+](=O)[O-])ccc21', 'condition not met'),
  ('CN1C(=O)CN=C(c2ncccn2)c2cc(Cl)ccc21', 'condition not met'),
  ('O=C1CN=C(c2ccccn2)c2cc(Br)ccc2N1 [BROMAZEPAM]', 'condition met'),
  ('Cc1cnc(C)c(C2=NCC(=O)Nc3ccc(Br)cc32)n1', 'condition not met'),
  ('O=[N+]([O-])c1ccc2c(c1)C(c1ncccn1)=NCCN2', 'condition not met'),
  ('O=C1CN=C(c2ccncn2)c2cc(Cl)ccc2N1', 'condition not met'),
  ('O=C1CN=C(c2cnccn2)c2cc(Cl)ccc2N1', 'condition not met');

Problem: Field: below-cutoff. Rule: recorded ED50 strictly less than 200 mg/kg. Subject: CN1C(=O)CN=C(c2ccccc2)c2cc(Cl)ccc21 [DIAZEPAM]
Result: condition met
